assay method text: Half life in Balb/c mouse at 5 mg/kg, iv by LC-MS/MS analysis
Type: ADME, organism-based
settings: in vivo
readout name: half-life (h)
Write down the numeric answer in h and omit the unit.

Recorded result, `NC[C@@](O)(c1ccc(Cl)cc1)c1ccc(-c2cn[nH]c2)cc1` , half-life: 2.8

* * *

measurement target: cAMP-dependent protein kinase catalytic subunit alpha (Homo sapiens, UniProt P17612)
assay method text: Inhibition of recombinant human His-tagged PKA catalytic domain (1 to 351 residues) expressed in Escherichia coli using Ser/Thr 7 as substrate after 1 hr by FRET-based Z'-Lyte assay
pIC50: −log10 of the molar value.
readout name: pIC50

Recorded result, `NC[C@@](O)(c1ccc(Cl)cc1)c1ccc(-c2cn[nH]c2)cc1` , pIC50: > 8.00

* * *

assay method text: Ratio of drug level in tumor to plasma in CrTac:Ncr-Fox1nu mouse at 40 mg/kg, po administered once daily for 2 days measured after 24 hrs post last dose
Type: ADME, organism-based
readout name: Kp at 24 h
Give your answer as a number; write no unit.

Recorded result, `NC[C@@](O)(c1ccc(Cl)cc1)c1ccc(-c2cn[nH]c2)cc1` , Kp at 24 h: 13.6
